- test_system: T1, Cyno CD33 ECD-HSA (cynomolgus monkey)
- T1 construct: Cyno CD33 extracellular domain fused to monomeric human serum albumin and a six-histidine tag; also called C33W1
- assay_explanation: SPRi off-rate screen (IBIS MX96), mAb captured by anti-human Fc; column head prints Cyno CD33 binding KD
recorded_endpoint: koff (s⁻¹)
A number alone suffices; assume s⁻¹.

Prompt: What measured koff goes with C33B80 (antibody, IgG1, V domains shown, huIgG1 F405L; also called C33F85; C33H76/C33L39) VH: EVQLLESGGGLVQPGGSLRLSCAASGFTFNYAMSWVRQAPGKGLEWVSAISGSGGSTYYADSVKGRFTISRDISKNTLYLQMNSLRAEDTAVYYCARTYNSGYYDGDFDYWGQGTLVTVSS VL: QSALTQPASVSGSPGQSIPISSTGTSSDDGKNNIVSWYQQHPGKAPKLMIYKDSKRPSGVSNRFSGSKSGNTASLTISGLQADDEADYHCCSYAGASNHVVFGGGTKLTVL ?
Response: 0.000266

Prompt: Same question, C33B101 (antibody, V domains shown, huIgG1 F405L; 260 is used; also called C33F106; C33H69/C4LL152) VH: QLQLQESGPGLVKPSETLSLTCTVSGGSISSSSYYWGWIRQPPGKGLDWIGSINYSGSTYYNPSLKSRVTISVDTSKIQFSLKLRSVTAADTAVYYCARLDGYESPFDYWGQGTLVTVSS VL: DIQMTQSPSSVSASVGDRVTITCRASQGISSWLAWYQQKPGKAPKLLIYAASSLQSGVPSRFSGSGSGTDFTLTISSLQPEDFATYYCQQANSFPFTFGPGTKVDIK this time
Response: 0.000106

Prompt: Same question, C33B72 (antibody, IgG1, V domains shown, huIgG1 F405L; also called C33F77; C33H65/C33L47) VH: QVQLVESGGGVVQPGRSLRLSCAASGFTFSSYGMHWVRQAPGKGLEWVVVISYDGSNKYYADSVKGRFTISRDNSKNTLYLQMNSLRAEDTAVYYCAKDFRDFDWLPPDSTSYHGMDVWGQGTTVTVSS VL: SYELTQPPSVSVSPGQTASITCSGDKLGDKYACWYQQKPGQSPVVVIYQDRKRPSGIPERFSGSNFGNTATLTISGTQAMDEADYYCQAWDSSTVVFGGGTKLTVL this time
Response: 0.000763

Entry source: patent US20230322924A1
